Below: a set of entries, each annotated with reported CARBON DIOXIDE.
# Organism: Rattus norvegicus
# method-description: DrugMatrix - Regimen: Daily Repeat
# Type: toxicity, organism-based, Sprague-Dawley
# Set-up: regimen Daily Repeat, gender Male, age 6-8 weeks
# test-conditions: in vivo, po, 0 mg/kg, 120 h, tissue Plasma, route oral GAVAGE, dose level Control, time 5 day, […]
assay-readout: CARBON DIOXIDE (mmol/L)

[[record]]
compound_structure = "C[C@H]1O[C@@H](O[C@H]2[C@@H](O)C[C@H](O[C@H]3[C@@H](O)C[C@H](O[C@H]4CC[C@@]5(C)[C@H](CC[C@@H]6[C@@H]5C[C@@H](O)[C@]5(C)[C@@H](C7=CC(=O)OC7)CC[C@]65O)C4)O[C@@H]3C)O[C@@H]2C)C[C@H](O)[C@@H]1O"
recorded_result = 33.17

[[record]]
compound_structure = "Cc1noc(NS(=O)(=O)c2ccc(N)cc2)c1C"
recorded_result = 29.17

[[record]]
compound_structure = "OC(Cn1cncn1)(Cn1cncn1)c1ccc(F)cc1F"
recorded_result = 25.33


Data origin: ChEMBL document CHEMBL3885881
